# Tested on: Lolium perenne (LOLPE)
# EXPERIMENT_DESCRIPTION: Test 1 glasshouse herbicide test, post-emergence application (Table B1)
# Format: in vivo
# ASSAY_SETUP: 250 g/ha unless otherwise stated, evaluated after 13 days, five-point scale
# Description: Seeds of a variety of test species are sown in standard soil in pots (Lolium perenne (LOLPE), Solanum nigrum (SOLNI), Amaranthus retoflexus (AMARE), Setaria faberi (SETFA), Echinochloa crus-galli (ECHCG) and Ipomoea hederacea (IPOHE)). […] After 13 days for pre and post-emergence, the test is evaluated for the percentage damage caused to the plant. […]
# % phytotoxicity LOLPE, post-emergence application annotations

Exam item: Suppose we examine the molecule Fc1cccc(Oc2ncc(Cl)cn2)c1SCCC(F)(F)F [Compound A7] ; what % phytotoxicity LOLPE, post-emergence application value has been reported?
Marked response: 2 (2=21 to 40%)

Exam item: Suppose we examine the molecule N#Cc1cccc(Oc2ncc(Cl)cn2)c1SCCCC(F)(F)F [Compound A28] ; what % phytotoxicity LOLPE, post-emergence application value has been reported?
Marked response: 5 (5=81 to 100%)

Exam item: Suppose we examine the molecule Clc1cnc(Oc2ccccc2SCc2ccccc2)nc1 [Compound A16] ; what % phytotoxicity LOLPE, post-emergence application value has been reported?
Marked response: 1 (1=0 to 20%)

More entries:
Exam item: Suppose we examine the molecule Clc1ccc(CSc2ccccc2Oc2ncc(Cl)cn2)cc1 [Compound A27] ; what % phytotoxicity LOLPE, post-emergence application value has been reported?
Marked response: 1 (1=0 to 20%)

Exam item: Suppose we examine the molecule O=S(=O)(CCC(F)(F)F)c1c(F)cccc1Oc1ncc(Cl)cn1 [Compound A9] ; what % phytotoxicity LOLPE, post-emergence application value has been reported?
Marked response: 3 (3=41 to 60%)
